# protocol: Cytotoxicity against mouse NS1 cells after 48 hrs by resazurin dye based assay
# Format: functional
Catalogue of MIC values
Give the quantity in µg/mL, number only.

// query Provide measured MIC value, entry: COc1cc(O)c2c(c1C)[C@H](C)[C@](O)(COC(=O)c1c(O)cc(O)c(C)c1C)OC2=O
// result 100

// query Provide measured MIC value, entry: COc1cc(O)c2c(c1C)[C@H](C)[C@](O)(COC(=O)c1c(C)c(C)c(O)c(C)c1O)OC2=O
// result 100

// query Provide measured MIC value, entry: COc1cc(O)c2c(c1C)[C@H](C)[C@](O)(COC(=O)c1c(C)cc3c(c1O)C(=O)c1c(O)cc(O)cc1C3=O)OC2=O
// result 100

// query Provide measured MIC value, entry: O=c1[nH]cc(F)c(=O)[nH]1
// result 0.8

----------
Catalogue of MIC values
# Tested on: Tritrichomonas suis
# protocol: Antiprotozoal activity against Tritrichomonas foetus KV1
# Assay type: functional
Give the quantity in µg/mL, number only.

// query Provide measured MIC value, entry: COc1cc(O)cc2c1C(=O)c1c(O)cc(C)cc1C2=O
// result 12.5

Further cases:
// query Provide measured MIC value, entry: COC(=O)Nc1nc2cc(C(=O)c3ccccc3)ccc2[nH]1
// result 1.6

// query Provide measured MIC value, entry: COc1cc(O)c2c(c1C)[C@H](C)[C@](O)(COC(=O)c1c(C)c(C)c(O)c(C)c1O)OC2=O
// result 50

// query Provide measured MIC value, entry: COc1cc(O)c2c(c1C)[C@H](C)[C@](O)(COC(=O)c1c(C)cc3c(c1O)C(=O)c1c(O)cc(O)cc1C3=O)OC2=O
// result 12.5
